System: Enterococcus faecalis
Test: microbe, parasite or virus in culture
Format: functional
Conditions: SF23-1, time 20 hrs
Description: Antimicrobial activity against Enterococcus faecalis SF23-1 harboring erythromycin-resistance rRNA methylase B, tetracycline efflux protein L and chloramphenicol-florfenicol resistance methylase assessed as inhibition of visible growth of bacteria incubated for 20 hrs by broth microdilution method
endpoint label: MIC (µg/mL)
Report as a plain number; the unit µg/mL is understood.

| compound | MIC, µg/mL |
| --- | --- |
| CC1C/C(=C\c2cccc(-c3ccc(Cl)c(C(F)(F)F)c3)c2)c2nc3ccccc3c(C(=O)O)c2C1 (racemic) | 4 |
| CC1C/C(=C\c2cccc(-c3ccc(Cl)c(C(F)(F)F)c3)c2)c2nc3ccc(O)cc3c(C(=O)O)c2C1 (racemic) | 16 |
| Cc1ccc(-c2ccc(/C=C3\CC(C)Cc4c3nc3ccccc3c4C(=O)O)o2)c(Cl)c1 (racemic) | 8 |
| COc1ccc2nc3c(c(C(=O)O)c2c1)CC(C)C/C3=C\c1cccc(-c2ccc(Cl)c(C(F)(F)F)c2)c1 (racemic) | 4 |
| CN[C@H](CC(C)C)C(=O)N[C@H]1C(=O)N[C@@H](CC(N)=O)C(=O)N[C@H]2C(=O)N[C@H]3C(=O)N[C@H](C(=O)N[C@H](C(=O)O)c4cc(O)cc(O)c4-c4cc3ccc4O)[C@H](O)c3ccc(c(Cl)c3)Oc3cc2cc(c3O[C@@H]2O[C@H](CO)[C@@H](O)[C@H](O)[C@H]2O[C@H]2C[C@](C)(N)[C@H](O)[C@H](C)O2)Oc2ccc(cc2Cl)[C@H]1O | 2 |

Input: Provide value of MIC for this record tested with Enterococcus faecalis: COc1ccc2nc3c(c(C(=O)O)c2c1)CC(C)C/C3=C\c1ccc(Oc2c(Cl)cc(N)cc2Cl)cc1 (racemic)
Output: 16

Input: Provide value of MIC for this record tested with Enterococcus faecalis: CC1C/C(=C\c2ccc(-c3cccc(Cl)c3Cl)o2)c2nc3ccccc3c(C(=O)O)c2C1 (racemic)
Output: 8

Input: Provide value of MIC for this record tested with Enterococcus faecalis: CCCCCCCCc1ccc(-c2ccc(/C=C3\CC(C)Cc4c3nc3ccc(OC)cc3c4C(=O)O)cc2)cc1 (racemic)
Output: 16

Input: Provide value of MIC for this record tested with Enterococcus faecalis: CC1C/C(=C\c2nc(-c3ccc(Cl)c(C(F)(F)F)c3)cs2)c2nc3ccccc3c(C(=O)O)c2C1 (racemic)
Output: 16
